- measurementDescription: Caco-2 permeability assay
- experimentalConditions: human, Caco-2
I'd be grateful if you could share measured Papp A→B at 2 h, 10 µM for these entries.
Field note: include the unit after the figure.

Dear reader, for each entry below, please note its Papp A→B at 2 h, 10 µM.
1. CC(=O)CC(c1ccccc1)c1c(O)c2ccccc2oc1=O (centres unmarked)
2. CNC(=C[N+](=O)[O-])NCCSCc1ccc(CN(C)C)o1

Response:
["42.9 ×10⁻⁶ cm/s", "0.3 ×10⁻⁶ cm/s"]

----------
- measurementDescription: Caco-2 permeability assay
- experimentalConditions: human, Caco-2
I'd be grateful if you could share measured Papp at 2 h, 10 µM for these entries.

CC(=O)CC(c1ccccc1)c1c(O)c2ccccc2oc1=O (centres unmarked) = > 5 ×10⁻⁶ cm/s

Next molecule, please.
Value of measured Papp at 2 h, 10 µM for the entry `CNC(=C[N+](=O)[O-])NCCSCc1ccc(CN(C)C)o1` : < 0.5 ×10⁻⁶ cm/s

----------
I'd be grateful if you could share measured efflux ratio at 2 h, 10 µM for these entries.
- measurementDescription: Caco-2 permeability assay
- experimentalConditions: human, Caco-2

CC(=O)CC(c1ccccc1)c1c(O)c2ccccc2oc1=O (centres unmarked) [Warfarin] = 0.4

Value of measured efflux ratio at 2 h, 10 µM for the entry CNC(=C[N+](=O)[O-])NCCSCc1ccc(CN(C)C)o1 [Ranitidine] : 5.3

----------
- measurementDescription: Caco-2 permeability assay
- experimentalConditions: human, Caco-2
recordedMetric: Papp B→A at 2 h, 10 µM (×10⁻⁶ cm/s)
Give bare numbers, in ×10⁻⁶ cm/s.

Value of measured Papp B→A at 2 h, 10 µM for the entry CC(=O)CC(c1ccccc1)c1c(O)c2ccccc2oc1=O (stereo not shown) : 16
